For each record, write down the corresponding relative viability.
# Test system: CAL-12T
# Method notes: relative viability (nuclei count vs DMSO), 5 days (fraction); higher = more cells survive
# Experimental context: first compound 0.001 µM
Give bare numbers.

Compound	relative viability
Cc1cn(-c2cc(NC(=O)c3ccc(C)c(Nc4nccc(-c5cccnc5)n4)c3)cc(C(F)(F)F)c2)cn1 [Nilotinib] + CS(=O)(=O)CCNCc1ccc(-c2ccc3ncnc(Nc4ccc(OCc5cccc(F)c5)c(Cl)c4)c3c2)o1 [Lapatinib] (partner 2 µM)	0.729
Cc1cn(-c2cc(NC(=O)c3ccc(C)c(Nc4nccc(-c5cccnc5)n4)c3)cc(C(F)(F)F)c2)cn1 [Nilotinib] + NC(=O)Nc1cc(-c2cccc(F)c2)sc1C(=O)N[C@H]1CCCNC1 [AZD7762] (partner 0.2 µM)	0.607
Cc1cn(-c2cc(NC(=O)c3ccc(C)c(Nc4nccc(-c5cccnc5)n4)c3)cc(C(F)(F)F)c2)cn1 [Nilotinib] + Cc1cc(Nc2cc(N3CCN(C)CC3)nc(Sc3ccc(NC(=O)C4CC4)cc3)n2)n[nH]1 [Tozasertib] (partner 0.1 µM)	0.197
Cc1cn(-c2cc(NC(=O)c3ccc(C)c(Nc4nccc(-c5cccnc5)n4)c3)cc(C(F)(F)F)c2)cn1 [Nilotinib] + Nc1nc2[nH]cc(CCc3ccc(C(=O)N[C@@H](CCC(=O)O)C(=O)O)cc3)c2c(=O)[nH]1 [Pemetrexed] (partner 0.2 µM)	0.977
Cc1cn(-c2cc(NC(=O)c3ccc(C)c(Nc4nccc(-c5cccnc5)n4)c3)cc(C(F)(F)F)c2)cn1 [Nilotinib] + CC(=O)c1c(C)c2cnc(Nc3ccc(N4CCNCC4)cn3)nc2n(C2CCCC2)c1=O [Palbociclib] (partner 0.5 µM)	0.593
Cc1cn(-c2cc(NC(=O)c3ccc(C)c(Nc4nccc(-c5cccnc5)n4)c3)cc(C(F)(F)F)c2)cn1 [Nilotinib] + O=C(c1cc(Cc2n[nH]c(=O)c3ccccc23)ccc1F)N1CCN(C(=O)C2CC2)CC1 [Olaparib] (partner 8 µM)	0.648

// each listed compound needs a value for relative viability
1. Cc1cn(-c2cc(NC(=O)c3ccc(C)c(Nc4nccc(-c5cccnc5)n4)c3)cc(C(F)(F)F)c2)cn1 [Nilotinib] + Cc1nc(Nc2ncc(C(=O)Nc3c(C)cccc3Cl)s2)cc(N2CCN(CCO)CC2)n1 [Dasatinib] (partner 0.075 µM)
2. Cc1cn(-c2cc(NC(=O)c3ccc(C)c(Nc4nccc(-c5cccnc5)n4)c3)cc(C(F)(F)F)c2)cn1 [Nilotinib] + CC(C)C[C@H](NC(=O)[C@H](Cc1ccccc1)NC(=O)c1cnccn1)B(O)O [Bortezomib] (partner 0.002 µM)
3. Cc1cn(-c2cc(NC(=O)c3ccc(C)c(Nc4nccc(-c5cccnc5)n4)c3)cc(C(F)(F)F)c2)cn1 [Nilotinib] + C[C@]1(O)C[C@@H](c2nc(-c3ccc4ccc(-c5ccccc5)nc4c3)c3c(N)nccn32)C1 [Linsitinib] (partner 1 µM)

Solution:
1: 0.376; 2: 0.968; 3: 0.75

Hey, just so you know, these numbers are from the supplement of paper PMC10307832.
